Data origin: BindingDB's records for doi:10.1124/mol.64.6.1342

# tested_on: Protein kinase C alpha type (Homo sapiens)
measurement_name: Ki

molecule	tested_on	Ki
C=C(C)C12OC3(c4ccccc4)OC1C1C4OC4(CO)C(O)C4(O)C(=O)C(C)=CC4C1(O3)C(C)C2OC(=O)C=CC=Cc1ccccc1 (centres undefined)	Protein kinase C alpha type (Homo sapiens)	0.27 nM
CC(C)C1C(=O)NC(CO)Cc2c[nH]c3cccc(c23)N1C (stereo not drawn) [(-)-Indolactam V (low PS)]	Protein kinase C alpha type (Homo sapiens)	12.6 nM
CC1=CC2C(O)(CC(CO)=CC3C4C(C)(C)C4(OC(=O)Cc4ccccc4)CC(C)C32O)C1=O (centres undefined)	Protein kinase C alpha type (Homo sapiens)	0.14 nM

Now look at this one.
What does the data say about its Ki? Entry: CCCCCCCCc1ccc2c3c(c[nH]c13)CC(CO)NC(=O)C(C(C)C)N2C (centres undefined) 0.53 nM
